# credit: the kinase profiling compilation of Christmann-Franck et al. (2016)

biological target: TSSK1B (human); experiment: radiometric filter-binding kinase assay; conditions: compound 0.1 µM
quantityMeasured: residual activity (%)

CN1CCN(CCOc2cc(OC3CCOCC3)c3c(Nc4c(Cl)ccc5c4OCO5)ncnc3c2)CC1 : 115
CC1=C(CO)C(=O)O[C@@H]([C@@H](C)[C@H]2CC[C@H]3[C@@H]4C[C@H]5O[C@]56[C@@H](O)C=CC(=O)[C@]6(C)C4CC[C@]23C)C1 (some centres not stated) : 100
COc1cc(O)c2c(c1)[C@H]1OC1C[C@H](O)[C@H](O)C(=O)/C=C\C[C@H](C)OC2=O (some centres not stated) : 110
COc1ccc(N(C(=O)Nc2c(C)cccc2C)c2cc(Nc3ccc(N4CCN(C)CC4)cc3)ncn2)c(OC)c1 : 102
NC(=O)c1cc(-c2ccnc(NC3CCCCC3)c2)nc(N2CCNCC2)c1 : 84
Cc1cc(NC(=O)c2cccc(NC(=O)/C=C/CN(C)C)c2)ccc1Nc1nccc(-c2cccnc2)n1 : 91
CN(C)C/C=C/C(=O)Nc1cccc(C(=O)Nc2ccc(Nc3nccc(-c4cccnc4)n3)cc2)c1 : 88
